Source listed as BigSolDB 2.1.

conditionParameters: in ethyl acetate, 283.15 K
attributeMeasured: solubility (mole fraction)

Reported solubility (mole fraction) of CC1CCC(=O)C1=O (stereo unspecified) : 0.0574

----------
conditionParameters: in isobutanol, 303.15 K
attributeMeasured: solubility (mole fraction)
Would you mind answering with just the numeric figure?

solubility (mole fraction) recorded for this molecule, CC1CCC(=O)C1=O (stereo unspecified) , is 0.111

----------
conditionParameters: in dichloromethane, 278.15 K
attributeMeasured: solubility (mole fraction)

Memo: CC1CCC(=O)C1=O (stereo unspecified) , reported solubility (mole fraction): 0.103

----------
conditionParameters: in ethyl acetate, 298.15 K
attributeMeasured: solubility (mole fraction)
Please state the value as a number alone, without comment.

// CC1CCC(=O)C1=O (stereo unspecified) : solubility (mole fraction) value = 0.131

----------
conditionParameters: in ethanol, 298.15 K
attributeMeasured: solubility (mole fraction)

Just so you know, measured solubility (mole fraction) for CC1CCC(=O)C1=O (stereo unspecified) came out at 0.0939

----------
conditionParameters: in acetone, 303.15 K
attributeMeasured: solubility (mole fraction)
Could you keep your reply to the number by itself?

Documented solubility (mole fraction) of CC1CCC(=O)C1=O (stereo unspecified) : 0.221

----------
conditionParameters: in n-propanol, 278.15 K
attributeMeasured: solubility (mole fraction)
The response must contain the number and no unit.

compound CC1CCC(=O)C1=O (stereo unspecified) , solubility (mole fraction) observed: 0.0389

----------
conditionParameters: in n-butanol, 283.15 K
attributeMeasured: solubility (mole fraction)
# output: bare number, no unit

So for CC1CCC(=O)C1=O (stereo unspecified) , the logged solubility (mole fraction) turned out to be 0.0444

----------
conditionParameters: in n-propanol, 293.15 K
attributeMeasured: solubility (mole fraction)
Answer with the value's number alone.

Recorded result, CC1CCC(=O)C1=O (stereo unspecified) , solubility (mole fraction): 0.0731

----------
conditionParameters: in 1,2-dichloroethane, 278.15 K
attributeMeasured: solubility (mole fraction)
I only need the number, thanks.

get_value(item= CC1CCC(=O)C1=O (stereo unspecified) , readout=solubility (mole fraction)) returns 0.0554

----------
conditionParameters: in isobutanol, 283.15 K
attributeMeasured: solubility (mole fraction)
Write the number on its own, no unit after it.

Looking up CC1CCC(=O)C1=O (stereo unspecified) , I see its solubility (mole fraction) listed as 0.0467

----------
conditionParameters: in ethanol, 313.15 K
attributeMeasured: solubility (mole fraction)
Please reply with the number alone, leaving off any unit.

Record summary for CC1CCC(=O)C1=O (stereo unspecified) : reported solubility (mole fraction) = 0.187

----------
conditionParameters: in 1,2-dichloroethane, 308.15 K
attributeMeasured: solubility (mole fraction)
Would you mind answering with just the numeric figure?

The reported value for CC1CCC(=O)C1=O (stereo unspecified) in terms of solubility (mole fraction) is 0.215

----------
conditionParameters: in methanol, 308.15 K
attributeMeasured: solubility (mole fraction)

Record CC1CCC(=O)C1=O (stereo unspecified) . Reported solubility (mole fraction): 0.177

----------
conditionParameters: in ethyl formate, 288.15 K
attributeMeasured: solubility (mole fraction)
Lab note: write the figure by itself, no unit.

solubility (mole fraction) measured on CC1CCC(=O)C1=O (stereo unspecified) = 0.0707

----------
conditionParameters: in ethyl formate, 278.15 K
attributeMeasured: solubility (mole fraction)

solubility (mole fraction) reading for CC1CCC(=O)C1=O (stereo unspecified) : 0.0504
